- measurement-target: T1, Soluble CD28-Ig (extracellular domain of human CD28 fused to the Fc portion of human IgG1) (human, UniProt P10747 19-152, biotin-conjugated (NHS-biotin) in the FACS binding assays)
- T1 construct: extracellular domain; bought from R&D Systems; also called sCD28-Ig; CD28-Ig Fc; not shown: Fc portion of human IgG1
- procedure-summary: competitive FACS on transfected cells, biotin-sCD28-Ig with FITC-sCTLA-4-Ig; grade 0-2 of CD28/CTLA-4 ratio vs WT hB7-1
measured-metric: Binding Score
Number, no unit, nothing else.

binder: Round 2 CD28F3-5 (ligand, also called GD28F3-5) SGITPKSVTKRVKETVMLSCDYNTSTEELTSLRIYWQKDSKMVLAILPGKVQVWPEYKNRTITDMNDNPRIVILALRLSDSGTYTCVVQKNENGSFRREHLTSVTLSIRADFPVPSITDIGHPAPNVKRIRCSASGGFPEPRLAWMEDGEELNAVNTTVDQDLDTELYSVSSELDFNVTNNHSIVCLIKYGELSVSQIFPWSKPKQEPPIDQLPFWVIIPVSGALVLTAVVLYCLACRHVARWKRTRRNEETVGTERLSPIYLGSAQSSG
data-value: 0

Now take the following binder into account.
Suppose we examine the binder Round 2 CD28E8-6 (ligand) ITPKSVTKRVKETVMLSCDYNTSTEELTSLRIYWQKDSKMVLAILPGKVQVWPEYKNRTITDMNDNPRIVILALRLSDSGTYTCVIQKPVLKGAYKLEHLTSVRLMIRADFPVPTINDLGNPSPNIRRLICSTSGGFPRPHLYWLENGEELNATNTTVSQDPETKLYMISSELDFNTTSNHSFLCLVKYGDLTVSQTFYWQESKPTPSANQHLTWTIIIPVSAFGISVIIAVILTCLTCRNAAIRRQRRENEVEMQSCSQSP ; what Binding Score value has been reported?
0

Data credit: patent US20100261660A1
